Entries and their measured normalized growth follow.
assay.method.text: chemical genetic growth profiling, strain panel (AID 1159580);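 also: tested at 20 µM; growth read once vehicle control cultures reached saturation at 30 °C; 1 = growth at the plate median or of vehicle wells; lower values mean less growth of the strain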
assay.conditions: S. cerevisiae deletion strains, growth OD, locus YLR371W, strain rom2, stronger effect = lower value
The campaign covered roughly 5,500 compounds. About 2,000 (36%) were called active. Inconclusive results (about 18%) are left out. This is one part of the list.

{"molecule": "C[C@H]1[C@H](C)CC[C@]2(C(=O)O)CC[C@]3(C)C(=CCC4[C@@]5(C)C[C@@H](O)[C@H](O)[C@@](C)(CO)C5[C@H](O)C[C@]43C)[C@H]12 (some centres not stated)", "normalized growth": 0.921}
{"molecule": "CC1(C)O[C@@H]2CC3C4C[C@H](F)C5=CC(=O)CC[C@]5(C)C4[C@@H](O)C[C@]3(C)[C@]2(C(=O)CO)O1 (some centres not stated)", "normalized growth": 1}
{"molecule": "NC[C@H]1O[C@H](O[C@H]2[C@H](O)[C@@H](O[C@H]3O[C@H](CO)[C@@H](O)[C@H](N)[C@H]3O)[C@H](N)C[C@@H]2N)[C@H](N)[C@@H](O)[C@@H]1O", "normalized growth": 0.996}
{"molecule": "COC(=O)C[C@H]1C(C)(C)[C@@H](O)[C@@H]2CC3=C4CC(O)O[C@@H](c5ccoc5)[C@]4(C)CCC3[C@@]1(C)C2=O (some centres not stated)", "normalized growth": 0.96}
{"molecule": "COC(=O)C(N)CS (configuration not stated)", "normalized growth": 0.967}
{"molecule": "CN(C)CC[C@H](c1ccc(Cl)cc1)c1ccccn1", "normalized growth": 0.991}
{"molecule": "CCC(=O)O[C@]1(C(=O)CCl)[C@@H](C)CC2C3CCC4=CC(=O)C=C[C@]4(C)[C@@]3(F)[C@@H](O)C[C@@]21C (some centres not stated)", "normalized growth": 0.976}
